# TEST_DETAILS: Conversion of prodrug to parent in in vitro biorelevant gastrointestinal tract media
# Type: in vitro ADME
# CONDITION_PARAMETERS: FaSSIF + pancreatin, 37° C., 3 h
MEASURED_ATTRIBUTE: Conversion in FaSSIF + Pancreatin, time

Solved cases below.
Cc1cc(Nc2cc(C(F)F)ccn2)nc(-c2ccc([C@](C)(O)[C@H]3CC[C@H](C(=O)OCOC(=O)C4CCNCC4)CC3)nc2)c1 100%, 3 h
Cc1cc(Nc2cc(C(F)F)ccn2)nc(-c2ccc([C@](C)(O)[C@H]3CC[C@H](C(=O)OCOC(=O)OCCOCCOCCOCCO)CC3)nc2)c1 100%, 3 h

With those in mind, consider the next compound.
## Input Param item = Cc1cc(Nc2cc(C(F)F)ccn2)nc(-c2ccc([C@](C)(O)[C@H]3CC[C@H](C(=O)OCC4CCNCC4)CC3)nc2)c1 ; retrieve measured Conversion in FaSSIF + Pancreatin, time.
## Output 100%, 3 h
